Each entry below carries its recorded % inhibition.
system: human PKK mRNA; assay: Antisense inhibition of human PKK mRNA in HepaRG cells, 1,000 nM, MOE/deoxy/cEt oligonucleotides (Example 3); type: cell-based; conditions: Table 20; HepaRG cells, electroporation with 1,000 nM antisense oligonucleotide, approximately 24 hours; PKK mRNA by RT-PCR (RTS3454), relative to untreated control cells
Strand notation (5' to 3'): a small letter for the sugar, then the base; units joined by * are phosphorothioate-linked, units joined directly phosphodiester-linked; [ ] holds rarer units or linkages, { } end groups; capitals alone tell only the bases. e = 2'-O-(2-methoxyethyl) (MOE); k = constrained ethyl (cEt); [5mC] = 5-methylcytosine; d = 2'-deoxy (DNA)
# number only, unit % dropped from output

Previously resolved entries follow.
[[record]]
substance = "547847 (antisense e[5mC]*eT*k[5mC]*dG*dA*dT*dG*dG*d[5mC]*dA*dA*dG*d[5mC]*kA*k[5mC]*eT) [compound 547847]"
assay_value = 46

[[record]]
substance = "547884 (e[5mC]*eG*kT*dG*dG*d[5mC]*dA*dT*dA*dT*dG*dA*dA*kA*kA*eA; antisense) [compound 547884]"
assay_value = 87


Please report the recorded % inhibition for 547861 (antisense eA*e[5mC]*kT*d[5mC]*d[5mC]*dT*d[5mC]*dT*d[5mC]*dA*dT*dA*dT*k[5mC]*kA*eA) [compound 547861] . 0

====

system: human PKK mRNA; test: Antisense inhibition of human PKK mRNA in HepaRG cells, 1,000 nM, MOE/deoxy/cEt oligonucleotides (Example 3); assay type: cell-based; conditions: HepaRG cells, electroporation with 1,000 nM antisense oligonucleotide, approximately 24 hours, primer probe set RTS3454, relative to untreated control cells; experiment of Table 24
Strand notation (5' to 3'): a small letter for the sugar, then the base; units joined by * are phosphorothioate-linked, units joined directly phosphodiester-linked; [ ] holds rarer units or linkages, { } end groups; capitals alone tell only the bases. e = 2'-O-(2-methoxyethyl) (MOE); k = constrained ethyl (cEt); [5mC] = 5-methylcytosine; d = 2'-deoxy (DNA)
Assay Endpoint: % inhibition (%)
Express your answer in %, writing the number without its unit.

[[record]]
substance = "548029 (eT*eG*kG*dT*dG*dT*d[5mC]*d[5mC]*dT*dA*dT*dG*dA*kG*kT*eG; antisense) [compound 548029]"
assay_value = 12

[[record]]
substance = "548036 (e[5mC]*e[5mC]*kA*d[5mC]*dT*dA*dT*dA*dG*dA*dT*dG*d[5mC]*kG*k[5mC]*e[5mC]; antisense) [compound 548036]"
assay_value = 74


Now consider the entry below.
Request body: readout % inhibition, system human PKK mRNA, query 548034 (eA*eT*kA*dG*dA*dT*dG*d[5mC]*dG*d[5mC]*d[5mC]*dA*dA*kA*k[5mC]*eA; antisense) [compound 548034] . Return the value. 31

====

// values below are reported pIC50
tested on: human PKK mRNA; test: Dose-dependent antisense inhibition of human PKK in HepaRG cells, 0.12-10.00 uM (Example 4); type: cell-based; settings: Table 32, PKK mRNA, electroporation, ~16 h
Strand notation (5' to 3'): a small letter for the sugar, then the base; units joined by * are phosphorothioate-linked, units joined directly phosphodiester-linked; [ ] holds rarer units or linkages, { } end groups; capitals alone tell only the bases. e = 2'-O-(2-methoxyethyl) (MOE); [5mC] = 5-methylcytosine; d = 2'-deoxy (DNA)
The scale used: pIC50 is minus the common logarithm of the concentration in molar units.

[[record]]
substance = "530965 (antisense eG*eG*e[5mC]*eA*e[5mC]*dA*dG*dG*dG*d[5mC]*dT*dT*d[5mC]*dA*dG*eT*eG*eA*eG*eA) [compound 530965]"
tested_system = "human PKK mRNA"
assay_value = 6.10


Recall the recorded pIC50 for 530971 (antisense eG*eG*eA*eA*e[5mC]*dT*dT*dG*dG*dT*dG*dT*dG*d[5mC]*d[5mC]*eA*e[5mC]*eT*eT*eT) [compound 530971] with human PKK mRNA and state it. 5.89

Here is the next substance: 531004 (eA*eG*eA*eG*eT*dA*dA*d[5mC]*d[5mC]*dA*dG*dA*dG*d[5mC]*dT*e[5mC]*e[5mC]*e[5mC]*eT*eT; antisense) [compound 531004] 5.68

And what about the substance 531231 (eT*eA*eT*e[5mC]*eA*d[5mC]*dT*dG*dT*dA*d[5mC]*dT*dA*dG*dT*eT*eT*e[5mC]*e[5mC]*eT) [compound 531231] ? 6.22

Could you do the same for 530933 (antisense eT*eG*eG*eA*eG*dG*dT*dG*dA*dG*dT*d[5mC]*dT*d[5mC]*dT*eT*eG*eT*e[5mC]*eA) [compound 530933] , please? 5.77

// next record 531005 (e[5mC]*eT*e[5mC]*eA*eA*dA*dG*dA*dG*dT*dA*dA*d[5mC]*d[5mC]*dA*eG*eA*eG*e[5mC]*eT; antisense) [compound 531005] 6.05

What about 486847 (antisense eA*eG*eG*e[5mC]*eA*dT*dA*dT*dT*dG*dG*dT*dT*dT*dT*eT*eG*eG*eA*eA) [compound 486847] ? 5.96

Likewise for 530967 (antisense e[5mC]*eA*eA*e[5mC]*e[5mC]*dA*dA*dT*dT*dT*d[5mC]*dT*dG*dA*dA*eA*eG*eG*eG*e[5mC]) [compound 530967] ? 6.15

====

test system: human PKK mRNA; assay: Antisense inhibition of human PKK mRNA in HepaRG cells, 1,000 nM, MOE/deoxy/cEt oligonucleotides (Example 3); format: cell-based; conditions: HepaRG cells, electroporation with 1,000 nM antisense oligonucleotide, approximately 24 hours, primer probe set RTS3454, relative to untreated control cells; experiment of Table 24
Strand notation (5' to 3'): a small letter for the sugar, then the base; units joined by * are phosphorothioate-linked, units joined directly phosphodiester-linked; [ ] holds rarer units or linkages, { } end groups; capitals alone tell only the bases. e = 2'-O-(2-methoxyethyl) (MOE); k = constrained ethyl (cEt); [5mC] = 5-methylcytosine; d = 2'-deoxy (DNA)
Assay Endpoint: % inhibition (%)
Give the value, in units of %, as a plain number.

[[record]]
substance = "548062 (eA*eT*kA*dA*dA*dT*dT*dG*dT*dG*d[5mC]*dT*dT*kG*kT*eG; antisense) [compound 548062]"
assay_value = 19


Which measured % inhibition value corresponds to 548070 (e[5mC]*e[5mC]*k[5mC]*dA*dA*d[5mC]*dA*dG*dT*dT*dG*dG*dT*kA*kT*eA; antisense) [compound 548070] ? 85

Similarly, 548068 (e[5mC]*eA*kA*d[5mC]*dA*dG*dT*dT*dG*dG*dT*dA*dT*kA*kA*eA; antisense) [compound 548068] ? 0

====

system: human PKK mRNA; assay: Antisense inhibition of human PKK mRNA in HepaRG cells, 1,000 nM, MOE/deoxy/cEt oligonucleotides (Example 3); assay type: cell-based; conditions: PKK mRNA, HepaRG cells, 1,000 nM antisense oligonucleotide; Table 31
Strand notation (5' to 3'): a small letter for the sugar, then the base; units joined by * are phosphorothioate-linked, units joined directly phosphodiester-linked; [ ] holds rarer units or linkages, { } end groups; capitals alone tell only the bases. e = 2'-O-(2-methoxyethyl) (MOE); k = constrained ethyl (cEt); [5mC] = 5-methylcytosine; d = 2'-deoxy (DNA)
Some substances, each annotated with its measured % inhibition.
Numbers only here, please. The scale is %.

Answered examples (5):
[[record]]
substance = "548659 (antisense e[5mC]*e[5mC]*kA*dA*d[5mC]*d[5mC]*dT*d[5mC]*dT*dA*dA*dG*dG*k[5mC]*kT*eA) [compound 548659]"
tested_system = "human PKK mRNA"
assay_value = 17

[[record]]
substance = "548643 (antisense e[5mC]*e[5mC]*kT*dA*d[5mC]*d[5mC]*dT*dA*dA*dT*dT*d[5mC]*d[5mC]*kT*k[5mC]*e[5mC]) [compound 548643]"
tested_system = "human PKK mRNA"
assay_value = 0

[[record]]
substance = "548632 (antisense eG*eG*kA*dG*dA*dT*dA*dT*d[5mC]*dA*dG*dG*dT*kG*k[5mC]*eA) [compound 548632]"
tested_system = "human PKK mRNA"
assay_value = 45

[[record]]
substance = "548641 (antisense eG*e[5mC]*kA*dT*d[5mC]*dA*dT*dG*d[5mC]*dT*dT*dA*d[5mC]*kT*kG*e[5mC]) [compound 548641]"
tested_system = "human PKK mRNA"
assay_value = 23

[[record]]
substance = "548645 (antisense e[5mC]*e[5mC]*kA*dG*d[5mC]*dG*d[5mC]*dA*dA*dT*dT*d[5mC]*dT*kG*k[5mC]*eT) [compound 548645]"
tested_system = "human PKK mRNA"
assay_value = 8


Switching to the query record.
Fill in: % inhibition of 548616 (antisense eA*eT*kT*dG*dG*dT*dG*dG*d[5mC]*dG*dG*dG*dA*kT*k[5mC]*eG) [compound 548616] is ___ 35
